target: MDMX (Homo sapiens); test: Competitive fluorescence polarization assay for MDMX; type: binding; settings: competitive FP assay, read-out: IC50 (MDMX)
Sequence (O15151 1-125): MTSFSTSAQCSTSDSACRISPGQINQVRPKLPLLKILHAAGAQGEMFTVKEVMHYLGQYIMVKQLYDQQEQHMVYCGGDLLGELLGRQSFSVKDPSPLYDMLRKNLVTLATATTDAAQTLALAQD
Where a SMILES comes first, the peptide text is derived from it. Bridges are numbered along the chain shown (N, C = ends). [ ]: non-standard residue; d: D form. R8 = C=CCCCCCC[C@@](C)(N)C(=O)O; S5 = C=CCCC[C@](C)(N)C(=O)O
Reported endpoint: IC50

- Compound: "CCCCCCNC(=O)[C@H](C)NC(=O)[C@H](CCCC)NC(=O)[C@H](C)NC(=O)[C@H](C)NC(=O)[C@]1(C)CCCC=CCCCCCC[C@@](C)(NC(=O)[C@H](Cc2ccccc2)NC(=O)[C@@H](NC(=O)[C@H](CC(C)C)NC(C)=O)[C@@H](C)O)C(=O)N[C@@H](C)C(=O)N[C@@H](Cc2ccc(O)cc2)C(=O)N[C@@H](Cc2c[nH]c3ccccc23)C(=O)N[C@@H](C)C(=O)N[C@@H](CCC(N)=O)C(=O)N[C@@H](CC(C)C)C(=O)N1 (single isomer, unassigned) [compound 427]"
  Tgt: "MDMX (Homo sapiens)"
  Reported endpoint: "IC50"
  Val: "100 to 1000 nM"
- Compound: "CC(=O)N[C@@H](CC(C)C)C(=O)N[C@H](C(=O)N[C@@H](Cc1ccccc1)C(=O)N[C@]1(C)CCCCCCC=CCCC[C@@](C)(C(=O)N[C@@H](C)C(=O)N[C@@H](C)C(=O)N[C@@H](CC(C)C)C(=O)N[C@H](C)C(N)=O)NC(=O)[C@H](CC(C)C)NC(=O)[C@H](CCC(N)=O)NC(=O)[C@H](C)NC(=O)[C@H](Cc2c[nH]c3ccccc23)NC(=O)[C@H](Cc2c[nH]cn2)NC(=O)[C@H](CCC(=O)O)NC1=O)[C@@H](C)O (single isomer, unassigned) [compound 227]"
  Tgt: "MDMX (Homo sapiens)"
  Reported endpoint: "IC50"
  Val: "100 to 1000 nM"
- Compound: "CC(=O)N[C@@H](C)C(=O)N[C@@H](CC(C)C)C(=O)N[C@H](C(=O)N[C@@H](Cc1ccccc1)C(=O)N[C@]1(C)CCCCCCC=CCCC[C@@](C)(C(=O)N[C@@H](CO)C(=O)N[C@@H](C)C(=O)N[C@@H](C)C(=O)N[C@@H](C)C(=O)N[C@H](C)C(N)=O)NC(=O)[C@H](CC2CCC2)NC(=O)[C@H](CCC(N)=O)NC(=O)[C@H](C)NC(=O)[C@H](Cc2c[nH]c3ccccc23)NC(=O)[C@H](Cc2ccc(O)cc2)NC(=O)[C@H](CCC(=O)O)NC1=O)[C@@H](C)O (single isomer, unassigned) [compound 357]"
  Tgt: "MDMX (Homo sapiens)"
  Reported endpoint: "IC50"
  Val: "10 to 100 nM"
- Compound: "CC(=O)N[C@@H](CC(C)C)C(=O)N[C@H](C(=O)N[C@@H](Cc1ccccc1)C(=O)N[C@]1(C)CCCCCCC=CCCC[C@@](C)(C(=O)N[C@@H](CO)C(=O)N[C@H](C(=O)NCC(N)=O)C(C)C)NC(=O)[C@H](CC(C)C)NC(=O)[C@H](CCC(N)=O)NC(=O)[C@H](C)NC(=O)[C@H](Cc2c[nH]c3ccccc23)NC(=O)[C@H](Cc2ccc(O)cc2)NC(=O)[C@H](C)NC1=O)[C@@H](C)O [compound 123] (Ac-LTF[R8]AYWAQL[S5]SVG-NH2; staple 4-11)"
  Tgt: "MDMX (Homo sapiens)"
  Reported endpoint: "IC50"
  Val: "100 to 1000 nM"
